# assay: Half life in cynomolgus monkey at 0.5 mg/kg, iv administered as single dose measured up to 24 hrs post dose by LC-MS/MS analysis
# Assay type: ADME, organism-based, Macaca fascicularis
# testConditions: in vivo
The molecules listed here are annotated with their half-life.
Response body: numeric value in h, unit text excluded.

1. CCOc1ccc(F)c(N2CC[C@@H](Oc3ccc(N4N=C(C(F)(F)F)[C@@H](C)[C@@H]4CC(=O)O)cc3)[C@H](F)C2)c1; 9.4

Given COc1cc(N2CC[C@@H](Oc3ccc(N4N=C(C(F)(F)F)[C@@H](C)[C@@H]4CC(=O)O)cc3)[C@H](C)C2)c(Cl)cn1 , state its recorded half-life.
13

* * *

# assay: Half life in Beagle dog at 0.5 mg/kg, iv administered as single dose measured up to 24 hrs post dose by LC-MS/MS analysis
# Assay type: ADME, organism-based, Canis lupus familiaris
# testConditions: in vivo
The compounds listed here are annotated with their half-life.

1. CCOc1ccc(F)c(N2CC[C@@H](Oc3ccc(N4N=C(C(F)(F)F)[C@@H](C)[C@@H]4CC(=O)O)cc3)[C@H](F)C2)c1; 7.3 h

Given COc1cc(N2CC[C@@H](Oc3ccc(N4N=C(C(F)(F)F)[C@@H](C)[C@@H]4CC(=O)O)cc3)[C@H](C)C2)c(Cl)cn1 , state its recorded half-life.
5.2 h

* * *

# assay: Cmax in C57BL6 mouse at 3 mg/kg, po administered as single dose via gavage measured up to 24 hrs post dose by LC-MS/MS analysis
# Type: ADME, organism-based
# Design: dose 3 mg/kg, route oral
# testConditions: in vivo
quantity: Cmax (µM)
Response body: numeric value in µM, unit text excluded.

Given COc1ccc(F)c(N2CCC(Oc3ccc(N4N=C(C(F)(F)F)[C@@H](C)[C@@H]4CC(=O)O)cc3)CC2)c1 , state its recorded Cmax.
3.4

* * *

# assay: Half life in Sprague-Dawley rat at 1 mg/kg, iv administered as single dose measured up to 24 hrs post dose by LC-MS/MS analysis
# Assay type: ADME, organism-based
# testConditions: in vivo
quantity: half-life (h)
Response body: numeric value in h, unit text excluded.

1. COc1cc(N2CC[C@@H](Oc3ccc(N4N=C(C(F)(F)F)[C@@H](C)[C@@H]4CC(=O)O)cc3)[C@H](C)C2)c(Cl)cn1; 4
2. COc1ccc(F)c(N2CCC(Oc3ccc(N4N=C(C(F)(F)F)[C@@H](C)[C@@H]4CC(=O)O)cc3)CC2)c1; 1.4

Next compound, please.
Given CCOc1ccc(F)c(N2CC[C@@H](Oc3ccc(N4N=C(C(F)(F)F)[C@@H](C)[C@@H]4CC(=O)O)cc3)[C@H](F)C2)c1 , state its recorded half-life.
3.4

* * *

# assay: Volume of distribution at steady state in Sprague-Dawley rat at 1 mg/kg, iv administered as single dose measured up to 24 hrs post dose by LC-MS/MS analysis
# Assay type: ADME, organism-based
# testConditions: in vivo, read-out: Vdss
quantity: Vd (L/kg)
Response body: numeric value in L/kg, unit text excluded.

1) CCOc1ccc(F)c(N2CC[C@@H](Oc3ccc(N4N=C(C(F)(F)F)[C@@H](C)[C@@H]4CC(=O)O)cc3)[C@H](F)C2)c1; 0.8
2) COc1cc(N2CC[C@@H](Oc3ccc(N4N=C(C(F)(F)F)[C@@H](C)[C@@H]4CC(=O)O)cc3)[C@H](C)C2)c(Cl)cn1; 0.3

Next molecule, please.
Given COc1ccc(F)c(N2CCC(Oc3ccc(N4N=C(C(F)(F)F)[C@@H](C)[C@@H]4CC(=O)O)cc3)CC2)c1 , state its recorded Vd.
0.6

* * *

# assay: Tmax in Sprague-Dawley rat at 3 mg/kg, po administered as single dose measured up to 24 hrs post dose by LC-MS/MS analysis
# Format: ADME, organism-based
# testConditions: in vivo
quantity: Tmax (h)
Response body: numeric value in h, unit text excluded.

1) CCOc1ccc(F)c(N2CC[C@@H](Oc3ccc(N4N=C(C(F)(F)F)[C@@H](C)[C@@H]4CC(=O)O)cc3)[C@H](F)C2)c1; 1.7
2) COc1cc(N2CC[C@@H](Oc3ccc(N4N=C(C(F)(F)F)[C@@H](C)[C@@H]4CC(=O)O)cc3)[C@H](C)C2)c(Cl)cn1; 1.3

Given COc1ccc(F)c(N2CCC(Oc3ccc(N4N=C(C(F)(F)F)[C@@H](C)[C@@H]4CC(=O)O)cc3)CC2)c1 , state its recorded Tmax.
0.7

* * *

# assay: Tmax in cynomolgus monkey at 1 mg/kg, po administered as single dose measured up to 24 hrs post dose by LC-MS/MS analysis
# Type: ADME, organism-based, Macaca fascicularis
# testConditions: in vivo
quantity: Tmax (h)
Response body: numeric value in h, unit text excluded.

Given COc1cc(N2CC[C@@H](Oc3ccc(N4N=C(C(F)(F)F)[C@@H](C)[C@@H]4CC(=O)O)cc3)[C@H](C)C2)c(Cl)cn1 , state its recorded Tmax.
5

* * *

# assay: Oral bioavailability in Beagle dog at 1 mg/kg administered via gavage as single dose measured up to 24 hrs post dose by LC-MS/MS analysis
# Assay type: ADME, organism-based, Canis lupus familiaris
# testConditions: in vivo
quantity: bioavailability (%)
Response body: numeric value in %, unit text excluded.

Given COc1cc(N2CC[C@@H](Oc3ccc(N4N=C(C(F)(F)F)[C@@H](C)[C@@H]4CC(=O)O)cc3)[C@H](C)C2)c(Cl)cn1 , state its recorded bioavailability.
62

* * *

# assay: Cmax in C57BL6 mouse at 1 mg/kg, po administered as single dose measured up to 24 hrs post dose by LC-MS/MS analysis
# Assay type: ADME, organism-based
# Set-up: dose 1 mg/kg, route oral
# testConditions: in vivo
quantity: Cmax (µM)
Response body: numeric value in µM, unit text excluded.

Given COc1cc(N2CC[C@@H](Oc3ccc(N4N=C(C(F)(F)F)[C@@H](C)[C@@H]4CC(=O)O)cc3)[C@H](C)C2)c(Cl)cn1 , state its recorded Cmax.
6

* * *

The compounds listed here are annotated with their remaining at 20 min, up to 3 µM.
# assay: Stability in human liver microsomes assessed as parent compound remaining at 1 to 3 uM incubated for 20 mins in presence NADPH measured up to 90 mins by LC/MS/MS analysis
# Format: ADME, microsome
# testConditions: liver microsomes, read-out: Stability
Response body: numeric value in %, unit text excluded.

1) CCOc1ccc(F)c(N2CC[C@@H](Oc3ccc(N4N=C(C(F)(F)F)[C@@H](C)[C@@H]4CC(=O)O)cc3)[C@H](F)C2)c1; 93

Next compound, please.
Given COc1cc(N2CC[C@@H](Oc3ccc(N4N=C(C(F)(F)F)[C@@H](C)[C@@H]4CC(=O)O)cc3)[C@H](C)C2)c(Cl)cn1 , state its recorded remaining at 20 min, up to 3 µM.
89

* * *

# assay: Clearance in Sprague-Dawley rat at 1 mg/kg, iv administered as single dose measured up to 24 hrs post dose by LC-MS/MS analysis
# Assay type: ADME, organism-based
# testConditions: in vivo
quantity: clearance (mL/min/kg)
Response body: numeric value in mL/min/kg, unit text excluded.

Here are 2 compounds together with their reported answers.
1) CCOc1ccc(F)c(N2CC[C@@H](Oc3ccc(N4N=C(C(F)(F)F)[C@@H](C)[C@@H]4CC(=O)O)cc3)[C@H](F)C2)c1; 5
2) COc1cc(N2CC[C@@H](Oc3ccc(N4N=C(C(F)(F)F)[C@@H](C)[C@@H]4CC(=O)O)cc3)[C@H](C)C2)c(Cl)cn1; 3.4

Next compound, please.
Given COc1ccc(F)c(N2CCC(Oc3ccc(N4N=C(C(F)(F)F)[C@@H](C)[C@@H]4CC(=O)O)cc3)CC2)c1 , state its recorded clearance.
17

* * *

The compounds listed here are annotated with their EC50.
# target: Free fatty acid receptor 1 (Homo sapiens)
# Sequence (O14842 whole entry): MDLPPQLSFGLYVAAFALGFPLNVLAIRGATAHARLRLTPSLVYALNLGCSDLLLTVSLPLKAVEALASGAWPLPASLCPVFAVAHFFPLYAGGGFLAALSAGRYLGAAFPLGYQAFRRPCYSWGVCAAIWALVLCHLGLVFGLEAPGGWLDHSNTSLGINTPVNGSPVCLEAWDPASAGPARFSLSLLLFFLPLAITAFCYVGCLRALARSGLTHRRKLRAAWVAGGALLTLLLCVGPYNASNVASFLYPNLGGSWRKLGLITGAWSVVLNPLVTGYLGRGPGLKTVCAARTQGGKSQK
# assay: Agonist activity at human GPR40 expressed in CHOA12 cells assessed as induction of Ca2+ mobilization by FLIPR assay
# Format: functional, cell-based

1) C[C@@H]1C(C(F)(F)F)=NN(c2ccc(OC3CCN(c4cccc(F)n4)CC3)cc2)[C@H]1CC(=O)O; 390 to 860 nM
2) CCc1ccc(F)c(N2CCC(Oc3ccc(N4N=C(C(F)(F)F)[C@@H](C)[C@@H]4CC(=O)O)cc3)CC2)c1; 450 to 720 nM
3) COc1ccc(F)c(N2CCC(Oc3ccc(N4C[C@H](C(F)(F)F)C[C@@H]4CC(=O)O)cc3)C2)c1 (stereo partly drawn); 2830 to 5360 nM
4) COc1ccc(F)c(N2CCC(Oc3ccc(N4CCC[C@@H]4CC(=O)O)cc3)CC2)c1; 1200 to 2600 nM
5) COc1cc(N2CC[C@@H](Oc3ccc(N4N=C(C(F)(F)F)[C@@H](C)[C@@H]4CC(=O)O)cc3)[C@H](F)C2)c(Cl)cn1; 180 nM

Item COc1cc(N2CCC(Oc3ccc(N4N=C(C(F)(F)F)[C@@H](C)[C@@H]4CC(=O)O)cc3)CC2)c(F)cn1 with Free fatty acid receptor 1 (Homo sapiens) - EC50?
150 to 180 nM

Item C[C@@H]1C(C(F)(F)F)=NN(c2ccc(OC3CCN(c4ccc(F)cc4)CC3)cc2)[C@H]1CC(=O)O with Free fatty acid receptor 1 (Homo sapiens) - EC50?
2550 to 2730 nM

Item CCOc1cc(N2CC[C@@H](Oc3ccc(N4N=C(C(F)(F)F)[C@@H](C)[C@@H]4CC(=O)O)cc3)[C@H](C)C2)c(Cl)cn1 with Free fatty acid receptor 1 (Homo sapiens) - EC50?
190 to 250 nM
